# pKi annotations
- Target entity: Bacterial leucyl aminopeptidase (Vibrio proteolyticus, UniProt Q01693)
- Sequence (Q01693 whole entry): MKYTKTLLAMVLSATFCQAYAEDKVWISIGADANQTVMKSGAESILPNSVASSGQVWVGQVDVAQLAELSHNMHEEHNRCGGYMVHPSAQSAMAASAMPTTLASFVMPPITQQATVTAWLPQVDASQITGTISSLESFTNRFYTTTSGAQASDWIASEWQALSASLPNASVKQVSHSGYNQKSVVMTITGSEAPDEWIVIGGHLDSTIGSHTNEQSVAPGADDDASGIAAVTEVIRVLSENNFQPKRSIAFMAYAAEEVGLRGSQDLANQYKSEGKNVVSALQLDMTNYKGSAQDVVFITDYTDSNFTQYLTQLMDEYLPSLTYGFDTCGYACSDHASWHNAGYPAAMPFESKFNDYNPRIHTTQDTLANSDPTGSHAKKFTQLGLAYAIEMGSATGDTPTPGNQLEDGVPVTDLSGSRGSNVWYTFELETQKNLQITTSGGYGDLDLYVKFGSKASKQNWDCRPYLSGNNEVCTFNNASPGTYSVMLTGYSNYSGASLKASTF
pKi: −log10 of the molar value.
Property name: pKi

- Compound: "NC1CCc2c(Br)ccc(-c3ccccc3)c2CC1=O (racemic)"
  Inequality sign: "="
  Recorded result: 4.41
- Compound: "NC1CCc2c(-c3ccccc3)ccc(-c3ccccc3)c2CC1=O (racemic)"
  Inequality sign: "<"
  Recorded result: 4.00
- Compound: "NC1CCc2c(ccc3ccccc23)CC1=O (racemic)"
  Inequality sign: "<"
  Recorded result: 4.00
- Compound: "NC1CCc2ccc3ccccc3c2CC1=O (racemic)"
  Inequality sign: "<"
  Recorded result: 4.00
- Compound: "NC1CCc2cccc(Br)c2CC1=O (racemic)"
  Inequality sign: "="
  Recorded result: 3.67

Ref: ChEMBL document CHEMBL1821575
